Target Of Assay: Ketohexokinase (KHK) (Homo sapiens)
Sequence (P50053 whole entry, species assumed): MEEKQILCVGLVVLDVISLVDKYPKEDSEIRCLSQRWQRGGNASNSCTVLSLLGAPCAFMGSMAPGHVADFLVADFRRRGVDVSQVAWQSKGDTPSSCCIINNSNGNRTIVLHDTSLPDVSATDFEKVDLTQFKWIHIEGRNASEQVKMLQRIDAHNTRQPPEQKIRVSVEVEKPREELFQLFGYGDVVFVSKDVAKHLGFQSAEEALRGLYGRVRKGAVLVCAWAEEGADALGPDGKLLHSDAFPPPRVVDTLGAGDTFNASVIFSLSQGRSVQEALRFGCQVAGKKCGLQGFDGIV
Reported Endpoint: Ki

molecule=C[C@H]1CCN1c1nc(N2CC[C@H](OCC(=O)N3CCNCC3)C2)c2c(n1)C(F)(F)CC2 reported_measurement="≤ 10 nM"
molecule=C[C@H]1CCN1c1nc(-c2ccc(CC(=O)N3CCNCC3)nc2)cc(C(F)(F)F)n1 reported_measurement="≤ 10 nM"
molecule=C[C@H]1CCN1c1nc(-c2ccc(OCC(=O)N3CCNCC3)nc2)cc(C(F)(F)F)n1 reported_measurement="≤ 10 nM"
molecule=C[C@H]1CCN1c1nc(-c2ccc(OCC(=O)N3CCCNCC3)c(Cl)c2)c2c(n1)C(F)(F)CC2 reported_measurement="≤ 10 nM"
molecule=C[C@H]1CCN1c1nc(N2CCN(CC(=O)N3CCNCC3)C(=O)C2)c2c(n1)C(F)(F)CC2 reported_measurement="≤ 10 nM"
molecule=C[C@H]1CCN1c1nc(C2CCN(CC(=O)N3CCNCC3)CC2)c2c(n1)C(F)(F)CC2 reported_measurement="≤ 10 nM"
molecule=CC(=O)N1CCN(C(=O)C[C@@H]2[C@@H]3C[C@H]2CN(c2nc(N4CC[C@@H]4C)nc4c2CCC4(F)F)C3)CC1 reported_measurement="100 to 1000 nM"
molecule=C[C@H]1CCN1c1nc(N2CCN(CC(=O)N3CCOCC3)CC2)c2c(n1)C(F)(F)CC2 reported_measurement="10 to 100 nM"
molecule=C[C@H]1CCN1c1nc(-c2ccc(OCC(=O)N3CCNCC3)nc2)c2c(n1)C(F)(F)CC2 reported_measurement="≤ 10 nM"
molecule=C[C@H]1CCN1c1nc(N2C[C@@H]3[C@@H](CC(=O)N4CCN(C)CC4)[C@@H]3C2)c2c(n1)C(F)(F)CC2 reported_measurement="≤ 10 nM"
molecule=C[C@H]1CCN1c1nc(N2CC[C@H](OCC(=O)N3CCNCC3)C2)cc(C(F)(F)F)n1 reported_measurement="100 to 1000 nM"
molecule=C[C@H]1CCN1c1nc(N2C[C@H]3C[C@@H](C2)[C@@H]3CC(=O)N2CCNCC2)c2c(n1)C(F)(F)CC2 reported_measurement="≤ 10 nM"
molecule=C[C@H]1CCN1c1nc(-c2cc(F)c(OCC(=O)N3CCNCC3)c(F)c2)c2c(n1)C(F)(F)CC2 reported_measurement="≤ 10 nM"
molecule=Cc1c(N2CCC(OCC(=O)N3CCNCC3)CC2)nc(N2CC[C@@H]2C)nc1C(F)(F)F reported_measurement="10 to 100 nM"
molecule=C[C@H]1CCN1c1nc(N2CC(OCC(=O)N3CCNCC3)C2)c(Cl)c(C(F)(F)F)n1 reported_measurement="≤ 10 nM"
molecule=C[C@H]1CCN1c1nc(-c2ccc(CC(=O)O)cc2)c2c(n1)C(F)(F)CC2 reported_measurement="10 to 100 nM"
molecule=C[C@H]1CCN1c1nc(-c2ccc(CC(=O)N3CCNCC3)cc2)c2c(n1)C(F)(F)CC2 reported_measurement="≤ 10 nM"
molecule=C[C@H]1CCN1c1nc(N2CCN(C(=O)CC(=O)N3CCNCC3)CC2)c2c(n1)C(F)(F)CC2 reported_measurement="≤ 10 nM"
molecule=C[C@H]1CCN1c1nc(N2CC(OCC(=O)N3CCNCC3)C2)cc(C(F)(F)F)n1 reported_measurement="10 to 100 nM"
molecule=C[C@H]1CCN1c1nc(N2C[C@@H](OCC(=O)N3CCNCC3)[C@@H]2C)c2c(n1)C(F)(F)CC2 reported_measurement="10 to 100 nM"
molecule=C[C@H]1CCN1c1nc(-c2ccc(OCC(=O)N3CCNCC3)c(Cl)c2)c2c(n1)C(F)(F)CC2 reported_measurement="≤ 10 nM"
molecule="CC1CCN1c1nc(N2CC3CC(C2)C3CC(=O)N2CCNCC2)c2c(n1)C(F)(F)CCC2 (stereo not shown)" reported_measurement="10 to 100 nM"
